System: VC8 cells (BRCA2 mutant)
test-protocol: Growth inhibition (proliferation) assay in BRCA2 mutant cells
Format: cell-based, Chinese hamster
test-conditions: Cricetulus griseus, V-C8; VC8 cells mutant for BRCA2; 4 hr treatment, 120 hr incubation, resazurin

[
  {
    "compound": "COc1cccc2c1C(=O)c1c(O)c3c(c(O)c1C2=O)C[C@@](O)(C(=O)CO)C[C@@H]3O[C@H]1C[C@H](N)[C@H](O)[C@H](C)O1 [doxorubicin]",
    "unit-descriptor": "nM",
    "IC50": 50
  },
  {
    "compound": "CN[C@H]1CN(c2ccc3c(=O)c(C(=O)O)cn(-c4nccs4)c3n2)C[C@@H]1OC [SNS-595]",
    "unit-descriptor": "nM",
    "IC50": 140
  }
]

// data source = patent US20170182015A1
